Tested on: NOMO1
Assay: cell viability relative to DMSO control; higher = less cytotoxic
Details: RPMI 5 mM glucose + 10% FBS; 48 h; 0.00234 µM
readout: cell viability (%)
// note: answer is a bare numeric in %

Worked examples follow.
| compound | unitLabel | cell viability |
| --- | --- | --- |
| O=C1\C=C/C=C2/[C@H]3CNC[C@H](C3)CN12 | % | 107 |
| O=C(O)CCCCC(CCSCc1ccccc1)SCc1ccccc1 (stereo unspecified) | % | 112 |
| C=C1C(=O)OC(CCCCCCCC)C1C(=O)O (stereo unspecified) | % | 114 |
| O=C/1NC(=O)C(=C1C2=CN=C3C=CC=C[N]23)/C4=C[N]5CCN(CC6=C5C4=CC=C6)C(=O)N7CCOCC7 | % | 121 |

## Input Fill in the recorded cell viability for this compound, with NOMO1 as test system: `Cc1cc(OCCC[S+](C)(=O)[O-])cc(C)c1-c1cccc(COc2ccc3c(c2)OC[C@H]3CC(=O)O)c1`
## Output 95

## Input // next record `C/C(=N\NC(=S)N1CCC1)c1ccccn1`
## Output 96.5

---

// values below are reported cell viability
Tested on: SEM cells
Assay: cell viability relative to DMSO control; higher = less cytotoxic
Conditions: RPMI 5 mM glucose + 10% FBS; 48 h; 0.0632 µM
// note: answer is a bare numeric in %

Worked examples follow.
| substanceSmiles | measValue |
| --- | --- |
| NC(=O)[C@H]1CCS[C@@H]2C[C@]3(CCCN3C(=O)Cc3ccc(NC(=O)COc4ccc(Cl)cc4Cl)cc3)C(=O)N12 | 121 |
| Cc1ccc(C(=O)Nc2cccc(C(F)(F)F)c2)cc1-c1ccc2nc(NCCN3CCOCC3)ncc2c1 | 116 |
| C[C@@H](NCCCc1cccc(C(F)(F)F)c1)c1cccc2ccccc12 | 107 |
| O=C(CCCCCCC(=O)Nc1cccnc1)NO | 101 |

Let us move to another entry and its cell viability.
## Input Give its cell viability value. Item: `CCc1cc(C(N)=S)ccn1`
## Output 104

---

Tested on: P12-Ichikawa
Assay: cell viability relative to DMSO control; higher = less cytotoxic
Details: RPMI 5 mM glucose + 10% FBS; 48 h; 0.00702 µM
// values below are reported cell viability
// note: answer is a bare numeric in %

| compound | readout | measValue |
| --- | --- | --- |
| O=C(O)CCCCC(CCSCc1ccccc1)SCc1ccccc1 (stereo not drawn) | cell viability | 138 |

## Input Give its cell viability value. Item: C=C1C(=O)OC(CCCCCCCC)C1C(=O)O (stereo not drawn)
## Output 123

## Input // next record `CC(C)(F)C[C@H](N[C@@H](c1ccc(-c2ccc([S+](C)(=O)[O-])cc2)cc1)C(F)(F)F)C(=O)NC1(C#N)CC1`
## Output 111

## Input // next record `CC[N+](CC)(CC)CCOc1cccc(OCC[N+](CC)(CC)CC)c1OCC[N+](CC)(CC)CC`
## Output 112

## Input // next record `Cc1nn(C)c(COc2ccc(N3CCN([S+](=O)([O-])N(C)C)CC3)cc2)c1-c1cccc2c(CCCOc3cccc4ccccc34)c(C(=O)O)n(CCN3CCOCC3)c12`
## Output 101

## Input // next record `C[N]1C=C(C2=CC=CC=C12)\C3=C(\C(=O)NC3=O)C4=C[N](C5CCN(CC5)CC6=NC=CC=C6)C7=C4C=CC=C7`
## Output 119

## Input // next record `COc1ccc(C(=O)c2c(C)n(CCN3CCOCC3)c3ccccc23)cc1`
## Output 95

## Input // next record `CC1=C(/C=C/C(C)=C/C=C/C(C)=C\C(=O)O)C(C)(C)CCC1`
## Output 82.7
